# System under test: S100A6 (human, UniProt P06703 1-90)
# Measurement notes: ITC
Ends that are not written are not given here.
Test readout: pKd
One number for each entry, as −log10 of the molar value.

Recorded pKd of Ac-AMVSEFLKQAWFIE [Annexin I peptide] , please. 4.89
